biological target: CREBBP (1084-1701) (Homo sapiens, UniProt Q92793); construct: measured in the following biochemical assay using CREBBP (1084-1701); purchased; assay: Biochemical assay for CREBBP (1084-1701), SAMDI; details: SAMDI, read-out: CREBBP Biochemistry IC50
Sequence (Q92793 1084-1701): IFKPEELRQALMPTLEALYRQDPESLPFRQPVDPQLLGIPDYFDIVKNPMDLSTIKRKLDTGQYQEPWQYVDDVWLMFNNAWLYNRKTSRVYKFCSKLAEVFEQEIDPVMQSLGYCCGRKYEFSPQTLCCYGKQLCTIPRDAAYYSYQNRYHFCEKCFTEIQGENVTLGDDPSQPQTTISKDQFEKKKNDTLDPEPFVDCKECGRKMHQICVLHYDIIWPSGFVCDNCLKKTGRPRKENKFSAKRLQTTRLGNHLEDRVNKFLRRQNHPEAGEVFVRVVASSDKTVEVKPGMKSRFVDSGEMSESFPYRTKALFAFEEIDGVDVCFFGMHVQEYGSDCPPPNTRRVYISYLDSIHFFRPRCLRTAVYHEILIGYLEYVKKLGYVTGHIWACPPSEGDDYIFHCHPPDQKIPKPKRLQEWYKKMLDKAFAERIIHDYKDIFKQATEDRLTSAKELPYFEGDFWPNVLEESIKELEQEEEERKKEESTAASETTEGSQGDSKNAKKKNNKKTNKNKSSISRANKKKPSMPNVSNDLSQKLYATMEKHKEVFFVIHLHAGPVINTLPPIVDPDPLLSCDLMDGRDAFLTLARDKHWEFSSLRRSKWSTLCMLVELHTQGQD
Provide the recorded pIC50 for the entries that follow.
Give bare numbers, as −log10 of the molar value.

Reference set (2 entries):
molecule	meas value
CCn1ncc(CN(C)C(=O)c2nc(-c3cc(Cl)cc(NCCNC)c3)nc3ccc(Cl)cc23)c1C [Compound 12]	7.89
CCc1ncc(CN(C)C(=O)c2nc(-c3cc(C)c4[nH]c(=O)[nH]c4c3)nc3ccc(Cl)cc23)n1C	8.05

Below are 5 molecules. Give each one its pIC50.
1. CCn1ncc(CN(C)C(=O)c2nc(-c3cn(C)cn3)nc3ccc(Cl)cc23)c1C
2. CCN(Cc1cnn(CC)c1C)C(=O)c1cc(-c2ccc(NCCNC)c(C)n2)nc2ccc(Cl)cc12
3. CCn1ncc(CN(C)C(=O)c2nc(-c3ccc(NC4CCNCC4)cn3)nc3ccc(Cl)cc23)c1C
4. CCn1ncc(CN(C)C(=O)c2cc(-c3cnc(N)c(C)n3)nc3ccc(Cl)cc23)c1C
5. CCn1ncc(CN(C)C(=O)c2nc(-c3cccc(Cl)c3)nc3ccc(Cl)c(C)c23)c1C

Result block:
[4.24, 6.98, 6.41, 4.64, 5.85]

Below are 2 molecules. Give each one its pIC50.
1. CCn1ncc(CN(C)C(=O)c2nc(-c3ccc4n[nH]c(NC)c4c3)nc3ccc(Cl)cc23)c1C
2. CCn1ncc(CN(C)C(=O)c2cc(-c3cc4[nH]ncc4c(C)n3)nc3ccc(Cl)cc23)c1C

Result block:
[8.37, 7.25]

----------
tested on: H3K18Ac in HB-CLS-2 cells; assay: H3K18AC in-cell western (ICW) assay; assay type: cell-based; settings: H3K18Ac in-cell western; read-out: CREBBP ICW IC50
Provide the recorded log10 of IC50 for the entries that follow.
Plainly stated, the numbers are log10 of IC50 given in nM.

Reference set (5 entries):
compound	experimental system	log10 of IC50
CCn1ncc(CN(C)C(=O)c2nc(-c3ccc(OCCN4CCCC4)c(Cl)c3)nc3ccc(Cl)cc23)c1C [Compound 54]	H3K18Ac in HB-CLS-2 cells	2.76
CCn1ncc(CN(C)C(=O)c2nc(-c3ccc(OCCOC)cc3Cl)nc3ccc(Cl)cc23)c1C [Compound 96]	H3K18Ac in HB-CLS-2 cells	3.28
CCc1nc(-c2cc(C(=O)N(C)Cc3cnn(CC)c3C)c3cc(COC)ccc3n2)ccc1NCCNC [Compound 595]	H3K18Ac in HB-CLS-2 cells	2.16
Cc1nc(-c2cc(C(=O)N(C)Cc3cnc(C(F)(F)F)n3C)c3cc(Cl)ccc3n2)ccc1NCCN(C)C [Compound 598]	H3K18Ac in HB-CLS-2 cells	2.50
CCn1ncc(CN(C)C(=O)c2nc(-c3ccc(OCCO)cn3)nc3ccc(Cl)cc23)c1C [Compound 173]	H3K18Ac in HB-CLS-2 cells	4.15

Next compound, log10 of IC50 to be filled in.
Query block: # return recorded log10 of IC50 for entry CCn1ncc([C@H](C)N(C)C(=O)c2cc(-c3ccc(NCCNC)c(C)n3)nc3ccc(Cl)cc23)c1C [Compound 607]
Result block: 3.51

----------
tested on: H3K18Ac in HB-CLS-2 cells; experiment: H3K18AC in-cell western (ICW) assay; assay type: cell-based; settings: H3K18Ac in-cell western, HB-CLS-2 cells; read-out: CREBBP ICW IC50
Provide the recorded IC50 for the entries that follow.
Answers are plain numbers, in µM.

line notation	quantity unit	IC50
CCn1ncc(CN(C)C(=O)c2nc(-c3cncn3C)nc3ccc(Cl)cc23)c1C	µM	7.4
CCn1ncc(CN(C)C(=O)c2nc(-c3cc(C(=O)Nc4ccccc4)n(C)n3)nc3ccc(Cl)cc23)c1C	µM	20

Query block: # return recorded IC50 for entry CCn1ncc(CN(C)C(=O)c2nc(-c3ccccc3F)nc3ccc(Cl)cc23)c1C
Result block: 1.5

----------
test system: H3K18Ac in HB-CLS-2 cells; experiment: H3K18AC in-cell western (ICW) assay; assay type: cell-based; settings: H3K18Ac in-cell western; read-out: CREBBP ICW IC50
pIC50: −log10 of the molar value.
Parameter threshold = 6. Response is Criterion met when pIC50 meets or exceeds it, else Criterion not met.

line notation	experimental system	qualitative label
CCn1ncc(CN(C)C(=O)c2nc(-c3ccc(OCCCNC)c(C4CC4)c3)nc3ccc(Cl)cc23)c1C	H3K18Ac in HB-CLS-2 cells	Criterion met

Query block: Hello, I need to know if CCn1ncc(CN(C)C(=O)c2cc(-c3ccccc3OC)nc3ccc(Cl)cc23)c1C has measured pIC50 not below 6. Thanks!
Result block: Criterion not met

Query block: Hello, I need to know if CCc1ncc(CN(C)C(=O)c2cc(-c3ccc(NC4CN(C)C4)c(C)n3)nc3ccc(Cl)cc23)n1C has measured pIC50 not below 6. Thanks!
Result block: Criterion met

Query block: Hello, I need to know if CCn1ncc(CN(C)C(=O)c2cc(-c3cc4n[nH]cc4cn3)nc3ccc(Cl)cc23)c1C has measured pIC50 not below 6. Thanks!
Result block: Criterion met

----------
test system: H3K18Ac in HB-CLS-2 cells; assay: H3K18AC in-cell western (ICW) assay; format: cell-based; conditions: H3K18Ac in-cell western, HB-CLS-2 cells; read-out: CREBBP ICW IC50
Provide the recorded pIC50 for the entries that follow.
Answers are plain numbers, as −log10 of the molar value.

Reference set (4 entries):
compound	readout type	meas value
CCn1ncc(CN(C)C(=O)c2cc(-c3ccc4c[nH]nc4n3)nc3ccc(Cl)cc23)c1C	pIC50	6.70
Cc1n[nH]c(C)c1CN(C)C(=O)c1nc(-c2ccccc2Cl)nc2ccc(Cl)cc12	pIC50	4.70
CCn1ncc(CN(C)C(=O)c2nc(-c3cc(C)c4cn[nH]c4c3)nc3ccc(Cl)cc23)c1C	pIC50	6.60
CCn1ncc(CN(C)C(=O)c2nc(-c3ccc(OCCNC)cn3)nc3ccc(Cl)cc23)c1C	pIC50	4.70

Below are 6 compounds. Give each one its pIC50.
1. CCn1ncc(CN(C)C(=O)c2cc(-c3ccc(NCCNC)c(C)n3)nc3ccc(Cl)cc23)c1C
2. CCn1ncc(CN(C)C(=O)c2cc(-c3cnc(NCCNC)cn3)nc3ccc(Cl)cc23)c1C
3. CCn1ncc(CN(C)C(=O)c2cc(-c3ccc(NCCNC)c(C)n3)nc3ccc(C)cc23)c1C
4. CCn1ncc(CN(C)C(=O)c2cc(-c3cc4[nH]ncc4c(C)n3)nc3ccc(Cl)cc23)c1C
5. CCn1ncc(CN(C)C(=O)c2cc(N3CCN(C)CC3)nc3ccc(Cl)cc23)c1C
6. CCn1ncc(CN(C)C(=O)c2cc(-c3cc(NCCNC)cc(C)n3)nc3ccc(Cl)cc23)c1C

Result block:
1: 6.64; 2: 6.40; 3: 6.80; 4: 6.92; 5: 4.70; 6: 6.64

----------
Target: EP300 (P300(1048-1664)) (Homo sapiens)
Construct: P300(1048-1664)
Sequence (Q09472 1048-1664): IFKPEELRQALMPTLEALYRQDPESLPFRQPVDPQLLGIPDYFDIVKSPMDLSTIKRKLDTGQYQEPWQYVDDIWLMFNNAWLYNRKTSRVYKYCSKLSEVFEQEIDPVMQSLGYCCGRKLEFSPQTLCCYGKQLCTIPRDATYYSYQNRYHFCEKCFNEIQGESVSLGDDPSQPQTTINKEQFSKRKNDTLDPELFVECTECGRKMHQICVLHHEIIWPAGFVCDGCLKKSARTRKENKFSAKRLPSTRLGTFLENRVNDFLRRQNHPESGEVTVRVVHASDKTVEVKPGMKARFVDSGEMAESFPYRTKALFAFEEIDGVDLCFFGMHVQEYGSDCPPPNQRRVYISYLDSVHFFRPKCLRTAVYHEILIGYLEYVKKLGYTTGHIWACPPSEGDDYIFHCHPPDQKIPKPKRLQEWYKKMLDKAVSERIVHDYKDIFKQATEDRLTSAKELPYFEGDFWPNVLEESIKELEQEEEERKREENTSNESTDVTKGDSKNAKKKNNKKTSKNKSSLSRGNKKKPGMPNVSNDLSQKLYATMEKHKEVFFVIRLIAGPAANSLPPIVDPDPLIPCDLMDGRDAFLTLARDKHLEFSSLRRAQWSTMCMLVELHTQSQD
Experiment: Biochemical assay for EP300, SAMDI
Conditions: EP300, SAMDI; read-out: EP300 Biochemistry IC50
Provide the recorded pIC50 for the entries that follow.
Answers are plain numbers, as −log10 of the molar value.

line notation	experimental system	meas value
CCn1ncc(CN(C)C(=O)c2nc(-c3cc(C(=O)Nc4ccccc4)n(C)n3)nc3ccc(Cl)cc23)c1C	EP300 (P300(1048-1664)) (Homo sapiens)	4.46
CCn1ncc(CN(C)C(=O)c2nc(-c3ccc(NC4CCOCC4)cn3)nc3ccc(Cl)cc23)c1C	EP300 (P300(1048-1664)) (Homo sapiens)	6.21

Below are 4 molecules. Give each one its pIC50.
1. CCn1ncc(CN(C)C(=O)c2nc(-c3ccc(OCCNC(C)=O)c(C)c3)nc3ccc(Cl)cc23)c1C
2. CCn1ncc(CN(C)C(=O)c2nc(-c3ccc(C(=O)NC)cc3)nc3ccc(Cl)cc23)c1C
3. CCn1ncc(CN(C)C(=O)c2nc(-c3cc(C(=O)NC)nn3C)nc3ccc(Cl)cc23)c1C
4. CCn1ncc(CN(C)C(=O)c2cc(-c3ccc(NCCNC)c(C)n3)nc3cc(COC)ccc23)c1C

Result block:
6.47
4.89
5.39
5.22
